Target: EGFR (Homo sapiens)
Construct: Add 7 ug A431 cell lysate per well (EGFR source); endogenous in cells; host or cells: A431
Sequence (P00533 25-1210): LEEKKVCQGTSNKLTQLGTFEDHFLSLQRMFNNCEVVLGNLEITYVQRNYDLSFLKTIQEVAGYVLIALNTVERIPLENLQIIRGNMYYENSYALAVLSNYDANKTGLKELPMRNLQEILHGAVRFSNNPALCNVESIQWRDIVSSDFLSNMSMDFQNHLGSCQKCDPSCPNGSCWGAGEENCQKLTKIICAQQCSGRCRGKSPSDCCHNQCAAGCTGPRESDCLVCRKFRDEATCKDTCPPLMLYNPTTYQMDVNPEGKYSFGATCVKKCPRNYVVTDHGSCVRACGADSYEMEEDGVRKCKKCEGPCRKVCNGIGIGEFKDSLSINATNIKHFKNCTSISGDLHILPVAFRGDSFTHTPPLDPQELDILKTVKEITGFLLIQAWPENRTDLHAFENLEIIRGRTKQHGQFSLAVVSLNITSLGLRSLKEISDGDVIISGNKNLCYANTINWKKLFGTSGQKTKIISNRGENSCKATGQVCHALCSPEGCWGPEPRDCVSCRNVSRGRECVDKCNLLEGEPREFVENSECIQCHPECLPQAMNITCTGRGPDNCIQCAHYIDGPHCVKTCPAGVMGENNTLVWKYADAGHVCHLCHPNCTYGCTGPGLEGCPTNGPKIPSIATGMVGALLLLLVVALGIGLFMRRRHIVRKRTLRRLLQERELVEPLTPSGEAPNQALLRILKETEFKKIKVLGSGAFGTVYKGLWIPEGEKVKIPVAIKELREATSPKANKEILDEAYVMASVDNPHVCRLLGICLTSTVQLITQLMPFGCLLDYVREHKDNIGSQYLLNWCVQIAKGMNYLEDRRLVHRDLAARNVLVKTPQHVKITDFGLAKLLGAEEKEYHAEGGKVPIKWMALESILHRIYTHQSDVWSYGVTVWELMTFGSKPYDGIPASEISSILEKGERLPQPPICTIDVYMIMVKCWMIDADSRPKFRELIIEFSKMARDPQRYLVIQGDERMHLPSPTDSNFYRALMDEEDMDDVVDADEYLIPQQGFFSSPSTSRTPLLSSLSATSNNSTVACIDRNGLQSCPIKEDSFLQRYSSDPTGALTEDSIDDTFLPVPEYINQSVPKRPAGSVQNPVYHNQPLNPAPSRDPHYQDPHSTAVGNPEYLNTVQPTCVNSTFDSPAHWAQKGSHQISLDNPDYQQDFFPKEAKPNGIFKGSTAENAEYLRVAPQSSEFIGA
Test: EGFR ELISA assay (in vitro kinase activity, EGFR captured from A431 cell lysate)
Format: biochemical
Parameters: concentration or dose not given beside the values
Kindly return T if reported Biochem EGFR %Inhibition is no lower than 10%; return F if it is lower.

QUERY: Threshold query (Biochem EGFR %Inhibition >= 10%) on "CN(C)c1ccc(C=C2C(=O)Nc3c(Br)cc(Br)cc32)c2ccccc12"
RESULT: T

QUERY: Threshold query (Biochem EGFR %Inhibition >= 10%) on "Cc1ccc(C=C2C(=O)Nc3ccc(Br)c(C)c32)o1"
RESULT: T

QUERY: Threshold query (Biochem EGFR %Inhibition >= 10%) on "CCOC(=O)CCc1c(C(=O)OCC)[nH]c(C=C2C(=O)Nc3ccc(S(=O)(=O)N4CCOCC4)cc32)c1CC(=O)OCC"
RESULT: F

QUERY: Threshold query (Biochem EGFR %Inhibition >= 10%) on "O=C1Nc2ccc(I)cc2C1=Cc1ccc(O)c([N+](=O)[O-])c1"
RESULT: T

QUERY: Threshold query (Biochem EGFR %Inhibition >= 10%) on "CSc1ccc(C=C2C(=O)Nc3ccc(CCCl)cc32)cc1"
RESULT: T

---

Molecular target: FLK-1 receptor (Mus musculus)
Construct: expressed in transfected cells; host or cells: NIH3T3 C7#3
Sequence (P35918 20-1345): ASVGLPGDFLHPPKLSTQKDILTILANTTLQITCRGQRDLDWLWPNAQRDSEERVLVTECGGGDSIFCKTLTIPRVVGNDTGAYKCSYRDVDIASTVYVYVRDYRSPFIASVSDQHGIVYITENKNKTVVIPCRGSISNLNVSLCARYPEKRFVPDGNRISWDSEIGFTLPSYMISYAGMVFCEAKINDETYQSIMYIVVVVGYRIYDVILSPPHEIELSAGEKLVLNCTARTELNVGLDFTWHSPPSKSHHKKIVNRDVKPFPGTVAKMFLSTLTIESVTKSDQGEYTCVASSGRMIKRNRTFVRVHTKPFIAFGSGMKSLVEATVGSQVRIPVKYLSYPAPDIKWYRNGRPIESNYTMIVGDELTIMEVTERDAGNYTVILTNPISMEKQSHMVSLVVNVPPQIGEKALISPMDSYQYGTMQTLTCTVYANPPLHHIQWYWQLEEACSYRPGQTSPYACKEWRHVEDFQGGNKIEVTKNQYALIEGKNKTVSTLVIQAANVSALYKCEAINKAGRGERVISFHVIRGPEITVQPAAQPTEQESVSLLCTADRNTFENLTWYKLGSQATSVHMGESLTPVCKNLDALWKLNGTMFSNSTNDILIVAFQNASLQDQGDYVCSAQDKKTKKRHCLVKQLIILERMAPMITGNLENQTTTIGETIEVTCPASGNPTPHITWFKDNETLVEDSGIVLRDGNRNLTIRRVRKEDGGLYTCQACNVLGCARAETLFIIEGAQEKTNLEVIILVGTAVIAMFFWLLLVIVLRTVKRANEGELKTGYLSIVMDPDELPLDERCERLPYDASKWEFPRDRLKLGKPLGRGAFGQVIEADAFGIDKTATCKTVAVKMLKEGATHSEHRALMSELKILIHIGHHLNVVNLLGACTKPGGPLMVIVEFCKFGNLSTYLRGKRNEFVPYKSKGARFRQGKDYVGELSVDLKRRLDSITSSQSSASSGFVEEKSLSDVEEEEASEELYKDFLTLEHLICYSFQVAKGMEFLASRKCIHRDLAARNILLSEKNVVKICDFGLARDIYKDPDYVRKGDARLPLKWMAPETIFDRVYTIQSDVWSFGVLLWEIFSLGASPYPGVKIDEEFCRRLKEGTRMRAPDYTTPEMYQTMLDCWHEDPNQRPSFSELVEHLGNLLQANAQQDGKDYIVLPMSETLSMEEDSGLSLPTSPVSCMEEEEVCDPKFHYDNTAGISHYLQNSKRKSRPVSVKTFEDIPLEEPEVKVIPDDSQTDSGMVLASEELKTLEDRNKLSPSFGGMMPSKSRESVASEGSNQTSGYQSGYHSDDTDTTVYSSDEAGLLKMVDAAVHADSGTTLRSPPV
Experiment: FLK-1 ELISA (kinase activity of the FLK-1 receptor in FLK-1/NIH3T3 cells, VEGF stimulated)
Format: cell-based
observable: Fik Kinase %Inhibition

Sample answers from the record:
[
  {
    "compound": "Cc1cc(C=C2C(=O)Nc3ccc(S(=O)(=O)Nc4ccc(C(F)(F)F)cc4)cc32)cc(C)c1O [10722/E07]",
    "Fik Kinase %Inhibition": "24.3%"
  },
  {
    "compound": "CCN(CC)c1ccc(C=C2C(=O)Nc3ccc(S(=O)(=O)NC)cc32)cc1 [10727/D02]",
    "Fik Kinase %Inhibition": "3.2%"
  },
  {
    "compound": "CCc1c(C)[nH]c(C=C2C(=O)Nc3ccc(S(=O)(=O)NC)cc32)c1C [10719/D05]",
    "Fik Kinase %Inhibition": "16.3%"
  },
  {
    "compound": "CCCCN(CCCC)c1ccc(C=C2C(=O)Nc3ccc(S(=O)(=O)NC)cc32)cc1 [10722/D10]",
    "Fik Kinase %Inhibition": "8.2%"
  },
  {
    "compound": "O=C1Nc2ccc(S(=O)(=O)Nc3ccc(C(F)(F)F)cc3)cc2C1=Cc1cc(Br)cc(Br)c1O [10734/E07]",
    "Fik Kinase %Inhibition": "27.9%"
  }
]

Please report Fik Kinase %Inhibition for every entry that follows.
1. CNS(=O)(=O)c1ccc2c(c1)C(=Cc1coc3c(Br)cc(Br)cc3c1=O)C(=O)N2 [10730/D09]
2. CNS(=O)(=O)c1ccc2c(c1)C(=Cc1cc(OC)c3c(c1)OCO3)C(=O)N2 [10728/D11]
3. COc1cc(C)cc(O)c1C=C1C(=O)Nc2c(Br)cc(Br)cc21 [10725/A06]
4. CNS(=O)(=O)c1ccc2c(c1)C(=Cc1cc(C(C)(C)C)c(OC)c(C(C)(C)C)c1)C(=O)N2 [10733/D04]
5. O=C1Nc2ccc(I)cc2C1=Cc1ccc(N2CCCC2)cc1 [10729/B10]
6. COc1ccc(C=C2C(=O)Nc3ccc(S(=O)(=O)N4CCOCC4)cc32)cc1C(C)(C)C [10732/F05]

RESULT:
["9.8%", "15.9%", "-7.3%", "15.5%", "-0.7%", "37.3%"]
